Provenance of the data: paper PMC6733660

# system.tested: recombinant EBV gp350 ectodomain (aa 4–863) (Epstein-Barr virus, strain  …, UniProt P03200-1)
# Sequence (P03200 4-863): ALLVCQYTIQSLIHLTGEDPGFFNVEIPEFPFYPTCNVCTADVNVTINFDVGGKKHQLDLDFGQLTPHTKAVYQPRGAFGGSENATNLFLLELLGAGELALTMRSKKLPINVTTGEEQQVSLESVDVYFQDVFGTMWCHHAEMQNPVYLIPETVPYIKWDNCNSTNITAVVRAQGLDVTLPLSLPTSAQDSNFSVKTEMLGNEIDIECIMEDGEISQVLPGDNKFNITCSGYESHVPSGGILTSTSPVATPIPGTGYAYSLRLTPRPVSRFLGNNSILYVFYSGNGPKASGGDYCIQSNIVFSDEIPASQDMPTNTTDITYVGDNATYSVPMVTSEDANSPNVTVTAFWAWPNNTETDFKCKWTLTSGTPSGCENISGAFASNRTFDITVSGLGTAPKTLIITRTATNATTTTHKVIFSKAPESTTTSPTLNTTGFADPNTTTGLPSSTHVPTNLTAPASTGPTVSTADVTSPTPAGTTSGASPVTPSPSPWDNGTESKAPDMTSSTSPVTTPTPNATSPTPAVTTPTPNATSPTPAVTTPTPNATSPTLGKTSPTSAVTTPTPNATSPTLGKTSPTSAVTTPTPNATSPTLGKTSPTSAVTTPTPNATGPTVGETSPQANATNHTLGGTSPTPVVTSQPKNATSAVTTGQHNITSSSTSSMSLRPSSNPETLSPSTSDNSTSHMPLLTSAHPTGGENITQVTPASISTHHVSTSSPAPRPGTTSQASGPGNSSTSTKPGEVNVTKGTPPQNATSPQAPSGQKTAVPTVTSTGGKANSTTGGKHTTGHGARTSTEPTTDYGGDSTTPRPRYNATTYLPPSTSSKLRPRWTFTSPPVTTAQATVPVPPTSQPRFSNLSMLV
# assay: ELISA

binder	binding result
HB3 (antibody, V domains shown) VH: ELVRPGASVKLSCKASGYTFASYWMQWVKQWPGQGLEWIGEINPNNGHTNYNERFKNKASLTVDKSSSTAYMQLSSLTSEDSAVYYCARNLYYYGRPDYWGQGTSVTVSS VL: SLSASLGDRVTISCRASQDIGNYLNWYQQKPDGTIKLLIYYTSRLHSGVPSRFSGSGSGTDYSLTISNLEEEDIATYFCQQGNTLPPTFGGGTKLEIK	binds
HB22 (antibody, V domains shown) VH: GLVAPSQSLSITCTVSGFSLTNYGIHWVRQPPGKGLEWLVVIWSDGSTIYNSALKSRLSISKDNSKSQVFLKMNSLQTDDTAMYYCARNYYGNSYPAWFAYWGQGTLVTVSA VL: SLPVSLGDQASISCRSSQSIVHSNGNTYLEWYLQKPGQSPKLLIYKVSNRFSGVPDRFSGSGSGTDFTLRISRVEAEDLGVYYCFQGSHVPWTFGGGTKLEIK	binds
HB17 (antibody, V domains shown) VH: ELVIPGASVKVSCKASGYTFTSYWIHWVKQWPGQGLEWIGEINPNNGHTNYNEKFKSKATLTVDKSSSTAYMQLSSLTSEDSAVYYCARNLFYYSRPDYWGQGTSVTVSS VL: SLSASLGDRVTISCRASQDIGNYLNWYQQKPDGTIKLLIYYTSRLHSGVPSRFSGSGSGTDYSLTISNLEEEDIATYFCQQGNTLPPTFGGGTKLEIK	binds
